Attribution: patent US20230192896A1

# testedTarget: T1, FX zymogen (UniProt P00742 41-179; P00742 183-488)
# T1 chain 1: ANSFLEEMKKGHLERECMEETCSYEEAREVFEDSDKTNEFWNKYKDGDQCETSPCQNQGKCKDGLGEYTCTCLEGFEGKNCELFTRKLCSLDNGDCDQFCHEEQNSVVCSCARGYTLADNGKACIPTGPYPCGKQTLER
# T1 chain 2: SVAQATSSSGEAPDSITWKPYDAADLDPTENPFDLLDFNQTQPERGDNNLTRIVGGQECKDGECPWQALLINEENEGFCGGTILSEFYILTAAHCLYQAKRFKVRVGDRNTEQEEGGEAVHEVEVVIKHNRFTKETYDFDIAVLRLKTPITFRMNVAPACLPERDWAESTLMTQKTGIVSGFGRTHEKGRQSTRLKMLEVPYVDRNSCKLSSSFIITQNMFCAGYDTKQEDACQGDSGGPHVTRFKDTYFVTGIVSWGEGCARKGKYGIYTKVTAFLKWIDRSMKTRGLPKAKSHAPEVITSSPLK
# testName: BLI
measure: Kd (nM)
Numeric only. Scale: nM

Example entries and their recorded answers appear below.
- binder: "BIIB-12-1333 (antibody, V domains shown) VH: QVQLVQSGAEVKKPGASVKVSCKASGYTFTSYYMVWVRQAPGQGLEWMGIINPSGGSTSYAQKFQGRVTMTRDTSTSTVYMELSSLRSEDTAVYYCARVSRRDYPLAFDIWGQGTMVTVSS VL: EIVMTQSPATLSVSPGERATLSCRASQSVSSNLAWYQQKPGQAPRLLIYGASTRATGIPARFSGSGSGTEFTLTISSLQSEDFAVYYCQQVNTWPTFGGGTKVEIK"
  Kd (nM): 16
- binder: "BIIB-12-1311 (antibody, V domains shown) VH: QVQLVESGGGVVQPGRSLRLSCAASGFTFSSYGMHWVRQAPGKGLEWVAVISYDGSNKYYADSVKGRFTISRDNSKNTLYLQMNSLRAEDTAVYYCAKGRHYWAVWGQGTLVTVSS VL: EIVLTQSPATLSLSPGERATLSCRASQSVSSYLAWYQQKPGQAPRLLIYDASNRATGIPARFSGSGSGTDFTLTISSLEPEDFAVYYCQQASNLPPTFGGGTKVEIK"
  Kd (nM): 29

Reported Kd for BIIB-12-905 (antibody, V domains shown) VH: QVQLVESGGGVVQPGRSLRLSCAASGFTFSSYGMHWVRQAPGKGLEWVAVISYDGSNKYYADSVKGRFTISRDNSKNTLYLQMNSLRAEDTAVYYCAKGGTYLDTWGQGTLVTVSS VL: EIVLTQSPGTLSLSPGERATLSCRASQSVRSSYLAWYQQKPGQAPRLLIYGASSRATGIPDRFSGSGSGTDFTLTISRLEPEDFAVYYCQQYGRFPPTFGGGTKVEIK was 48.4
